Data provenance: ChEMBL document CHEMBL1201862

- PROCEDURE TEXT: viability of PTEN-deleted HCT116 cells – cell-based, HCT116 PTEN knockout, dose response (AID 1047);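 also: HCT116 colon tumor cells with PTEN knocked out; cells exposed to compound for 60 hours before readout; potency for loss of cell viability measured by luminescence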
- Assay type: functional
Calls of active or inactive are those of the source. No rule for the calls is given here.
TEST READOUT: EC50

Use these answered entries as a reference point.
Cc1cc2c3c(c1)C(C)(c1ccccc1)CC(C)(C)N3C(=O)C21C(C#N)=C(N)OC2=C1C(=O)CC(C)(C)C2 (centres undefined)
19.4 µM (active)
CCN(CC)CCCNc1nc2cc(OC)c(OC)cc2c2nc(-c3cccnc3)nn12
8.62 µM (active)
COc1ccc(NS(=O)(=O)c2cc([N+](=O)[O-])ccc2N/N=C\c2c(C)[nH]c3ccccc23)cc1
17.6 µM (active)

Enquiry: Which EC50 value belongs to O=C(OC(C(=O)Nc1cccc(C(F)(F)F)c1)c1ccccc1)C1CCCCC1 (centres undefined) ?
Return: 118 µM (active)
